molecular target: human α4β7 integrin (human) (UniProt P13612); test: inhibition of HUT 78 cell adhesion to murine MAdCAM-1/mCk at 500 µM
Ends that are not written are not given here. * marks the point of attachment. Benzoyl(4-heptyl) = CCCCCCCc1ccc(C(=O)*)cc1; cPrCO(2,2,3,3-Me4) = CC1(C)C(C(=O)*)C1(C)C; PhAc = O=C(Cc1ccccc1)*
Quick list: % Adhesion Inhibition per entry.

>  <BINDER>
PhAc-LDTSL (not fully specified (C-terminus); printed as Pha-Leu-Asp-Thr-Ser-Leu) [Pha-Leu-Asp-Thr-Ser-Leu]

>  <% Adhesion Inhibition, %>
38

$$$$
>  <BINDER>
{cPrCO(2,2,3,3-Me4)}-LDTSL [Tpc-Leu-Asp-Thr-Ser-Leu]

>  <% Adhesion Inhibition, %>
39

$$$$
>  <BINDER>
{Benzoyl(4-heptyl)}-LDTSL (not fully specified (C-terminus); printed as Hbz-Leu-Asp-Thr-Ser-Leu) [Hbz-Leu-Asp-Thr-Ser-Leu]

>  <% Adhesion Inhibition, %>
51

$$$$

Reference source for all entries: patent US20020103111A1
